Just for reference, patent US20220144812A1 is where these values come from.

measured.target: EP300 (P300(1048-1664)) (Homo sapiens)
Construct: P300(1048-1664)
Sequence (Q09472 1048-1664): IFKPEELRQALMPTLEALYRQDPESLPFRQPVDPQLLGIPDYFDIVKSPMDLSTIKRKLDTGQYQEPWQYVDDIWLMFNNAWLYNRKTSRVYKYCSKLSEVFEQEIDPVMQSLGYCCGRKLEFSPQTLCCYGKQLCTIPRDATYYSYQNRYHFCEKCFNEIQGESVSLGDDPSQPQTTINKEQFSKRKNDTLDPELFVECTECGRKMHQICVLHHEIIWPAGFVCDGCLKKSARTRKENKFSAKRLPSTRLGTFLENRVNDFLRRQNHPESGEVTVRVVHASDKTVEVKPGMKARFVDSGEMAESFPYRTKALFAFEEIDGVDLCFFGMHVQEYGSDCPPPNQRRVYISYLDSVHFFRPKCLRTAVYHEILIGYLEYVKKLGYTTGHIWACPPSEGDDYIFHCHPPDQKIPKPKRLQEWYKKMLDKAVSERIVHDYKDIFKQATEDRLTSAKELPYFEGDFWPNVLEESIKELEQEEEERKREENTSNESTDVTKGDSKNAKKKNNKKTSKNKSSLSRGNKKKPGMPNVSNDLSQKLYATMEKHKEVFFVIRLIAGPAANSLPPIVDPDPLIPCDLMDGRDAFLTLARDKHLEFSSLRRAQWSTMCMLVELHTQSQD
experiment.notes: Biochemical assay for EP300, SAMDI
conditions.used: EP300, SAMDI; read-out: EP300 Biochemistry IC50
pIC50: −log10 of the molar value.
readout.name: pIC50

| molecule | pIC50 |
| --- | --- |
| CCn1ncc(CN(C)C(=O)c2nc(-c3ccc(OCCCNC)cc3C)nc3ccc(Cl)cc23)c1C | 7.28 |

I. CCn1ncc(CN(C)C(=O)c2nc(-c3cnc[nH]3)nc3ccc(Cl)cc23)c1C
II. CCn1ncc(CN(C)C(=O)c2nc(-c3cc(C)nc(NCCN(C)C)c3)nc3ccc(Cl)cc23)c1C [Compound 470]
Between the entries labeled I and II , whose measured pIC50 is lower? Kindly state the label of the option you pick. I
